- TARGET DESC: human MC4R receptor (human, UniProt P32245 1-332)
- Sequence (P32245 whole entry): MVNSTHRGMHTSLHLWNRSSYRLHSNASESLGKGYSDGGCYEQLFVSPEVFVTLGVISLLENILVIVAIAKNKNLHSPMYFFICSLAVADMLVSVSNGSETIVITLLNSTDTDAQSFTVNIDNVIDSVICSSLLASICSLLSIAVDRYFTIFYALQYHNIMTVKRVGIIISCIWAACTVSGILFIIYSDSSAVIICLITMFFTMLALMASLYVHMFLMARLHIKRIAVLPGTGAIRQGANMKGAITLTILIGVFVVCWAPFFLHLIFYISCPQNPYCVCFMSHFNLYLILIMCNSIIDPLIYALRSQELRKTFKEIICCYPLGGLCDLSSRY
- ASSAY TEXT: cell-based or functional assay
Positions of bridges follow the written chain, without caps; N, C: chain ends. Non-standard residues stand in square brackets, D forms with d. d(αMeF) = C[C@@](N)(Cc1ccccc1)C(=O)O; 4Pal = N[C@@H](Cc1ccncc1)C(=O)O; Cit = NC(=O)NCCC[C@H](N)C(=O)O; Nle = CCCC[C@H](N)C(=O)O; Aib = CC(C)(N)C(=O)O
So basically: cAMP EC50 at 100 nM or higher? That is label 1. Lower than 100 nM? That is label 0.

Worked examples follow.
1) {CH2CO}-[Aib][Cit][dF]RWC-NH2 (thioether N-6; SMILES CC1(C)NC(=O)CSC[C@@H](C(N)=O)NC(=O)[C@H](Cc2c[nH]c3ccccc23)NC(=O)[C@H](CCCNC(=N)N)NC(=O)[C@@H](Cc2ccccc2)NC(=O)[C@H](CCCNC(N)=O)NC1=O) [CTX-1649]
label 0
2) Ac-R[Nle]C[Cit][dF]RFC-NH2 (disulfide 3-8; SMILES CCCC[C@H](NC(=O)[C@H](CCCNC(=N)N)NC(C)=O)C(=O)N[C@H]1CSSC[C@@H](C(N)=O)NC(=O)[C@H](Cc2ccccc2)NC(=O)[C@H](CCCNC(=N)N)NC(=O)[C@@H](Cc2ccccc2)NC(=O)[C@H](CCCNC(N)=O)NC1=O) [CTX-1626]
label 1
3) Ac-CGR[dF]RFC-NH2 (disulfide 1-7; SMILES CC(=O)N[C@H]1CSSC[C@@H](C(N)=O)NC(=O)[C@H](Cc2ccccc2)NC(=O)[C@H](CCCNC(=N)N)NC(=O)[C@@H](Cc2ccccc2)NC(=O)[C@H](CCCNC(=N)N)NC(=O)CNC1=O) [CTX-1638]
label 1

Hi, just wondering whether Ac-RC[dA]R[d(αMeF)]RWC-NH2 (disulfide 2-8; SMILES CC(=O)N[C@@H](CCCNC(=N)N)C(=O)N[C@H]1CSSC[C@@H](C(N)=O)NC(=O)[C@H](Cc2c[nH]c3ccccc23)NC(=O)[C@H](CCCNC(=N)N)NC(=O)[C@@](C)(Cc2ccccc2)NC(=O)[C@H](CCCNC(=N)N)NC(=O)[C@@H](C)NC1=O) [CTX-1278] shows cAMP EC50 of 100 nM or higher.
label 0

Hi, just wondering whether Ac-RC[Aib][4Pal][dF]RFC-NH2 (disulfide 2-8; SMILES CC(=O)N[C@@H](CCCNC(=N)N)C(=O)N[C@H]1CSSC[C@@H](C(N)=O)NC(=O)[C@H](Cc2ccccc2)NC(=O)[C@H](CCCNC(=N)N)NC(=O)[C@@H](Cc2ccccc2)NC(=O)[C@H](Cc2ccncc2)NC(=O)C(C)(C)NC1=O) [CTX-1606] shows cAMP EC50 of 100 nM or higher.
label 1

Hi, just wondering whether {CH2CO}-GR[dF]RFC-NH2 (thioether N-6; SMILES N=C(N)NCCC[C@@H]1NC(=O)CNC(=O)CSC[C@@H](C(N)=O)NC(=O)[C@H](Cc2ccccc2)NC(=O)[C@H](CCCNC(=N)N)NC(=O)[C@@H](Cc2ccccc2)NC1=O) [CTX-1654] shows cAMP EC50 of 100 nM or higher.
label 1
